FYI, the data here is from patent US20090191187A1.

# targetDesc: T1, human interleukin-1 receptor on cells (MRC-5 human embryonic lung fibroblasts; human blood cells) (human, UniProt P14778 18-569)
# T1 sequence (looked up): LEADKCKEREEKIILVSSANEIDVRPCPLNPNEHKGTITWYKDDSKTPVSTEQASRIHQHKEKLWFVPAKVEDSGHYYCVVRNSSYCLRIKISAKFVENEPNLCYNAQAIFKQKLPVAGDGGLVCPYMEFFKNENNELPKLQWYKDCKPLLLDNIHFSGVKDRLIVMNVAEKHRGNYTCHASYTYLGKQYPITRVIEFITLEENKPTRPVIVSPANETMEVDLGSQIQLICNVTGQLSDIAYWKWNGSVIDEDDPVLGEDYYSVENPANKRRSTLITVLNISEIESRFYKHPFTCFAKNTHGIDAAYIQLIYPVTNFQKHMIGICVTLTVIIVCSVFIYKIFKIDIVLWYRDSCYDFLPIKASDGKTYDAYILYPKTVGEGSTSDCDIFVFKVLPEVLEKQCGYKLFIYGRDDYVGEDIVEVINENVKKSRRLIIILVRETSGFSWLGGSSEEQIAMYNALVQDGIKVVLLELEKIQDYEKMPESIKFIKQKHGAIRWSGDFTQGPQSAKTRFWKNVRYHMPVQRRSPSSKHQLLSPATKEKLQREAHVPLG
# testSummary: cell-based or functional assay
Measured Bioassay (IC50 in relation to 2D8), 1st experiment by item

// solved cases for Bioassay (IC50 in relation to 2D8), 1st experiment follow
- binder: "DEI2/4 (antibody, V domains shown, also called combination of HURDIVHv2 and HURDIVKv4) VH: QLQLQESGPGLVKPSQTLSLTCTVSGLSLTSNSITWVRQAPGQGLEWMGMIWSNGDTDYSTSLKSRLTISKDTSKSQVVLTMTNMDPVDTATYYCARYNYYFDYWGQGTLVTVSS VL: DIVLTQSPATLSLSPGERATLSCKASQNVDNRGVSYVHWYQQKPGQAPKLLIYKGSNLAFGVPARFSGSGSGTDFTLTISSLQPEDFATYYCQQSKGHPDTFGAGTKLELK"
  result: "2.5 relative to 2D8"
- binder: "DEI1/8 (antibody, V domains shown) VH: QLQLQESGPGLVKPSQTLSLTCTVSGLSLTSNSITWVRQAPGQGLEWMGMIWSNGDTDYNSAFTSRFTISRDNSKNTLYLQMNSLKTEDTAVYYCARYNYYFDYWGQGTLVTVSS VL: DIVLTQSPATLSLSPGERATLSCKASQNVDNRGVSYVHWYQQKPGQAPKLLIYKGSNLAFGVPSRFSGSGSGTDFTLTISSLQPEDFATYFCQQSKGHPDTFGAGTKLELK"
  result: "3.2 relative to 2D8"
- binder: "DEI2/8 (antibody, V domains shown, also called combination of HURDIVHv2 and HURDIVKv8) VH: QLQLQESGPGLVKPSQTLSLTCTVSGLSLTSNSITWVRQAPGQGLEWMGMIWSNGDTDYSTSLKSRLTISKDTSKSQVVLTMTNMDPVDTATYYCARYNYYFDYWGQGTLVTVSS VL: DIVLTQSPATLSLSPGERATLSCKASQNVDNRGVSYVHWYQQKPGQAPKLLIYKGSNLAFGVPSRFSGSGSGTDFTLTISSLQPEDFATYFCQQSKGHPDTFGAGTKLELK"
  result: "3.3 relative to 2D8"
- binder: "DEI4/7 (antibody, V domains shown) VH: QLQLQESGPGLVKPSQTLSLTCTVSGLSLTSNSITWIRQPPGKGPEWMGMIWSNGDTDYNSAFTSRFTISRDNSKNTLYLQMNSLKTEDTAVYYCARYNYYFDYWGQGTLVTVSS VL: DIVLTQSPATLSLSPGERATLSCKASQNVDNRGVSYVHWYQQKPGQAPKLLIYKGSNLAFGVPARFSGSGSGTDFTLTISSLQPEDFATYFCQQSKGHPDTFGAGTKLELK"
  result: "3.4 relative to 2D8"
- binder: "HUM2/2 (antibody, V domains shown, Humanized variant of 2D8) VH: QVQLQESGPGLVKPSETLSLTCTVSELSLTSNSITWIRQPPGKGLEWIGMIWSNGDTDYNSAFTSRVTISRDTSKNQFSLKLSSVTAADTAVYYCARYNYYFDYWGQGTLVTVSS VL: EIVLTQSPATLSLSPGERATLSCKASQNVDNRGVSYVHWYQQKPGQAPRLLIYKGSNLAFGVPARFSGSGSRTDFTLTISSLEPEDFATYYCQQSKGHPDTFGQGTKVEIK"
  result: "0.9 relative to 2D8"
- binder: "DEI5/5 (antibody, V domains shown, also called combination of HURDIVHv5 and HURDIVKv5) VH: QLQLQESGPGLVKPSQTLSLTCTVSGLSLTSNSITWIRQPPGKGPEWMGMIWSNGDTDYSTSLKSRLTISKDTSKSQVVLTMTNMDPVDTATYYCARYNYYFDYWGQGTLVTVSS VL: DIVLTQSPATLSLSPGERATISCKASQNVDNRGVSYVHWYQQKPGQAPKLLIYKGSNLAFGVPARFSGSGSGTDFTLTISSLQPEDFATYYCQQSKGHPDTFGAGTKLELK"
  result: "5.2 relative to 2D8"
- binder: "DEI4/9 (antibody, V domains shown) VH: QLQLQESGPGLVKPSQTLSLTCTVSGLSLTSNSITWIRQPPGKGPEWMGMIWSNGDTDYNSAFTSRFTISRDNSKNTLYLQMNSLKTEDTAVYYCARYNYYFDYWGQGTLVTVSS VL: DIVLTQSPATLSLSPGERATLSCKASQNVDNRGVSYVHWYQQKPGQAPKLLIYKGSNLAFGVPSRFSGSGSGTDFTLTISSLQPEDFATYYCQQSKGHPDTFGAGTKLELK"
  result: "5.2 relative to 2D8"
- binder: "DEI5/7 (antibody, V domains shown) VH: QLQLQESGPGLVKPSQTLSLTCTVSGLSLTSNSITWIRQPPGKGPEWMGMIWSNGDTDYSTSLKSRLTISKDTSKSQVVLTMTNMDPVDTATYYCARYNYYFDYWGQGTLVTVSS VL: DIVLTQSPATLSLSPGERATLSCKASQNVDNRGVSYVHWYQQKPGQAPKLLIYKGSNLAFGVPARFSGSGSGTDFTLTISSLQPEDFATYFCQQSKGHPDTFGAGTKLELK"
  result: "3.4 relative to 2D8"

Asked: Requested read-out: Bioassay (IC50 in relation to 2D8), 1st experiment. Entry: DEI2/9 (antibody, V domains shown, also called combination of HURDIVHv2 and HURDIVKv9) VH: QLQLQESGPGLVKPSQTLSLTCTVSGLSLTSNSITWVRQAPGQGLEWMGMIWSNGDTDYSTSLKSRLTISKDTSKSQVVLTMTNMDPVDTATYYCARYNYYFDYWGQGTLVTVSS VL: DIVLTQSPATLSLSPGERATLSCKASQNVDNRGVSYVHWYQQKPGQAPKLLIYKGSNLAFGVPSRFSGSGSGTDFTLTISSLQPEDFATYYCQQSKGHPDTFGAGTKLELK
Given back: 2.7 relative to 2D8

Asked: Requested read-out: Bioassay (IC50 in relation to 2D8), 1st experiment. Entry: HUM2/3 (antibody, V domains shown, also called combination of HUR HuVH v2 and HUR HuVK v3) VH: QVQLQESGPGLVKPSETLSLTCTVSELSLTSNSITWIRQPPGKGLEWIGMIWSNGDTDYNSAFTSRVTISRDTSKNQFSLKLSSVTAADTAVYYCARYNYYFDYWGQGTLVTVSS VL: EIVLTQSPATLSLSPGERATISCKASQNVDNRGVSYVHWYQQKPGQQPKLLIYKGSNLAFGVPARFSGSGSRTDFTLTISSLEPEDFATYYCQQSKGHPDTFGQGTKVEIK
Given back: 0.8 relative to 2D8

Asked: Requested read-out: Bioassay (IC50 in relation to 2D8), 1st experiment. Entry: DEI4/5 (antibody, V domains shown, also called combination of HURDIVHv4 and HURDIVKv5) VH: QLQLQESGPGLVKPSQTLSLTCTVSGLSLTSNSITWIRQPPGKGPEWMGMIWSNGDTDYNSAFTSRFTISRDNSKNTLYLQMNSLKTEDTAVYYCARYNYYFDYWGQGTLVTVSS VL: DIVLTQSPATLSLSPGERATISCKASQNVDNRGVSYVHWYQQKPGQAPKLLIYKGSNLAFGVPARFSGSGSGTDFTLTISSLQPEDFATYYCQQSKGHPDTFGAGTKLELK
Given back: 1.5 relative to 2D8
